Values were extracted from PubChem BioAssay (NCI).

Test system: 786-0 renal
ASSAY METHOD TEXT: NCI-60 one-dose screen, 48 h (100 = growth as untreated, 0 = no growth, -100 = all killed)
CONDITION CONTEXT: 10 µM unless noted
The panel holds about 83,000 compounds, 20% with a hit somewhere; the sample as a whole holds those more often.

>  <MOLECULE>
CN(C)c1ccc(/C=C/C2=[N+](C)c3ccccc3C2(C)C)cc1

>  <growth, %>
25

$$$$
>  <MOLECULE>
O=C(O)CCCN1C(=O)CSC1=S

>  <growth, %>
102

$$$$
>  <MOLECULE>
CC(C)(C)c1ccc(C(=O)Nc2sc3c(c2C#N)CCC(=O)C3)cc1

>  <growth, %>
17.6

$$$$
>  <MOLECULE>
N#Cc1c(-c2ccc(Cl)cc2)nc(NN=Cc2cccc(Cl)c2)nc1N1CCOCC1

>  <growth, %>
70.1

$$$$
>  <MOLECULE>
Cc1cccc(C)c1NC(=O)Nc1ccccc1

>  <growth, %>
110

$$$$
>  <MOLECULE>
O=C(Nc1ccc(Cl)cc1)C1=NCCCCN1

>  <growth, %>
99.9

$$$$
>  <MOLECULE>
CN1CCN(CCCNC(=O)c2c3c(n4ccccc24)C(=O)c2ncccc2C3=O)CC1

>  <growth, %>
28.5

$$$$
>  <MOLECULE>
O=C1c2ccccc2C(=O)c2cc(Cn3c[n+](Cc4ccc5ccccc5c4)c4ccccc43)ccc21

>  <growth, %>
61.2

$$$$
>  <MOLECULE>
CCN(CC)CCCC(Nc1c2ccc(Cl)cc2nc2ccc(OC)cc12)c1ccncc1 (configuration not stated)

>  <growth, %>
62.7

$$$$
>  <MOLECULE>
Cn1cc(-c2ccc3c(Nc4cccc(NC(=O)Nc5cccc(F)c5)c4)ncnc3c2)cn1

>  <growth, %>
18.1

$$$$
>  <MOLECULE>
O=C(Cn1cc(CSc2nc3ccccc3o2)nn1)Nc1ccc([N+](=O)[O-])cc1

>  <growth, %>
99.1

$$$$
>  <MOLECULE>
Cc1cccc(CN(Nc2ccccc2)c2ccccc2)n1

>  <growth, %>
107

$$$$
>  <MOLECULE>
CCCCCC(C)(O)C(C(=O)O)c1ccccc1 (configuration not stated)

>  <growth, %>
99.2

$$$$
>  <MOLECULE>
COc1ccc(S(=O)(=O)NC2c3ccccc3CC2O)cc1OC (configuration not stated)

>  <growth, %>
104

$$$$
>  <MOLECULE>
CCN(CC)CCCNC(=O)c1c2c(n3ccccc13)C(=O)c1ncccc1C2=O

>  <growth, %>
3.22

$$$$
>  <MOLECULE>
O=C(Nc1ncc(Cc2ccc(Cl)cc2)s1)C1=NCCCCN1

>  <growth, %>
107

$$$$
>  <MOLECULE>
CCN1CCN(C(=O)[C@]23CC[C@@H](C)[C@H](C)[C@@H]2C2=CC[C@@H]4[C@@]5(C)C/C(=C/c6ccncc6)C(=O)C(C)(C)[C@@H]5CC[C@@]4(C)[C@]2(C)CC3)CC1

>  <growth, %>
19.6

$$$$
>  <MOLECULE>
Nc1nc(=O)n([C@H]2CC=C(CO)O2)cc1F

>  <growth, %>
102

$$$$
>  <MOLECULE>
COc1cccc(C(=O)Nc2cccc(NC(=O)c3ccccn3)c2)c1

>  <growth, %>
85.6

$$$$
>  <MOLECULE>
C#CCOc1ccc(C2=NN(CCCC)C3N=C(Cl)c4ncn(CCCC)c4N23)cc1OCC#C (configuration not stated)

>  <growth, %>
102

$$$$
>  <MOLECULE>
COCCn1cc(-c2nc(-c3cc4cccnc4n3C)cs2)c2cc(OC)ccc21

>  <growth, %>
66.8

$$$$
>  <MOLECULE>
CSc1nc(N)c2c(n1)NC(c1ccccc1)C1CCc3ccccc3C1=N2 (configuration not stated)

>  <growth, %>
69.2

$$$$
>  <MOLECULE>
CC(=O)Cc1nsc(NC(=O)c2cc(-c3cc(Cl)ccc3Cl)oc2C)n1

>  <growth, %>
97

$$$$
>  <MOLECULE>
C=CC(=O)NCc1cccc(Nc2ncc(Br)c(NCCCNC(=O)C3CCC3)n2)c1

>  <growth, %>
-35.2

$$$$
>  <MOLECULE>
O=c1ccc2nc(-c3ccccc3)nn(-c3ccccn3)c-2c1

>  <growth, %>
63.5

$$$$
>  <MOLECULE>
O=C1c2cccnc2C(=O)c2c1c(C(=O)OCCCN1CCOCC1)c1ccccn21

>  <growth, %>
-18.4

$$$$
>  <MOLECULE>
O=C1CCc2c(sc3[nH]c(=S)n(-c4cc(C(F)(F)F)cc(C(F)(F)F)c4)c(=O)c23)C1

>  <growth, %>
18.1

$$$$
>  <MOLECULE>
CCOC(=O)/C=C1\S/C(=N\Nc2cc(=O)[nH]c3ccc(OC)cc23)N(c2ccccc2)C1=O

>  <growth, %>
94.4

$$$$
>  <MOLECULE>
COc1ccc(C(=O)/C=C/c2ccc(C)cc2)cc1S(N)(=O)=O

>  <growth, %>
40.8

$$$$
>  <MOLECULE>
COc1cc(OCc2cccc(-c3ccccc3)c2C)cc(OC)c1CN1CCCCC1C(=O)NCCOCCOCCN (configuration not stated)

>  <growth, %>
90.8

$$$$
>  <MOLECULE>
COc1ccccc1NC(=O)n1c(=O)cc(C)c2ccc(O)cc21

>  <growth, %>
115

$$$$
>  <MOLECULE>
CNC(=O)c1cc(Oc2ccc3nc(NC(=O)Nc4ccc(F)cc4F)sc3c2)ccn1

>  <growth, %>
64

$$$$
>  <MOLECULE>
N#CC1=C(N)Oc2c(ccc3cccnc23)C1c1ccccc1 (configuration not stated)

>  <growth, %>
35.3

$$$$
>  <MOLECULE>
Oc1ccc(C2OCCO2)c2cccnc12

>  <growth, %>
97.9

$$$$
>  <MOLECULE>
O=C1/C(=C/c2ccc(Br)cc2)COc2ccc(O)cc21

>  <growth, %>
76.4

$$$$
>  <MOLECULE>
COc1ccc(/C=C2/CCc3cc4ccc(OC)cc4[o+]c32)c(O)c1

>  <growth, %>
-6.35

$$$$
>  <MOLECULE>
CCN1C(=O)N(CC)C2C1NN=c1s/c(=C3\C(=O)N(C)c4ccccc43)c(=O)n12 (configuration not stated)

>  <growth, %>
36.9

$$$$
>  <MOLECULE>
COC(=O)[C@H]1Cc2c([nH]c3ccccc23)[C@H](c2ccc3c(c2)OCO3)N1

>  <growth, %>
98.5

$$$$
>  <MOLECULE>
COc1cc2c(cc1OC)CC[N+](CCC[N+](C)(C)C)=C2

>  <growth, %>
96.2

$$$$
>  <MOLECULE>
COC(=O)[C@H](C)NC(=O)[C@@H]1CCCN1C(=O)CNC(=O)[C@H](C)N

>  <growth, %>
98

$$$$
>  <MOLECULE>
O=C(/C=C/c1ccc([N+](=O)[O-])cc1)c1cccc(Nc2nc(Nc3ccccc3)nc(Nc3ccccc3)n2)c1

>  <growth, %>
70.5

$$$$
>  <MOLECULE>
C#CCOc1cccc(Nc2c(Cl)c(CCl)nc3ccc(Oc4ccccc4)cc23)c1

>  <growth, %>
17.7

$$$$
